tested on: CCRF-CEM leukemia; assay: NCI tumour cell line growth inhibition, 48 h
Form field: GI50 (one value per entry).

Examples with their reported GI50 follow.
CCCCCCCCCCCCCCCCCC1=NCCN1CS(=O)(=O)O	3.96 µM
O=C1C(Br)=CC2(C=C1Br)CCN=c1c2c(O)c2nc3ccccc3c3ccnc1c23	0.132 µM

Next up:
GI50 reading for C=C(C)[C@@H]1CC[C@]2(C)[C@H](C(=O)C=C3[C@@H]4C[C@](C)(C(=O)N5CCN(C)CC5)CC[C@]4(C)CC[C@]32C)[C@@]1(C)CCC#N : 6.62 µM

###

test system: MALME-3M melanoma; experiment: NCI tumour cell line growth inhibition, 48 h
assay-readout: GI50

Examples with their reported GI50 follow.
CCC(C)n1cc(C)c2c(C(=O)NCc3c(C)cc(C)[nH]c3=O)cc(Br)cc21 (stereo unspecified)	36.2 µM
CCN(CC)CCCNc1cccc2c(SCc3ccccc3)ccnc12	2.13 µM
ClC1=C(Cl)C(Cl)=C(Cl)C1=C/C=C/c1ccccc1	0.167 µM

GI50 of COc1ccc(C(=O)c2ccc(OC)c(OC)c2OC)cc1 , assay on MALME-3M melanoma, is 1.77 µM

GI50 of CCCCCCCC/C=C/CCCCCCCCC1=NCCN1CCO , assay on MALME-3M melanoma, is 5.08 µM

GI50 of C=C1C[C@](OC)([C@H](O)C(=O)N[C@@H](OC)[C@@H]2C[C@@H](O)C(C)(C)[C@@H](C[C@@H](COC)OC)O2)O[C@H](C)[C@@H]1C , assay on MALME-3M melanoma, is 0.000693 µM

###

test system: COLO 205 colon; assay: NCI tumour cell line growth inhibition, 48 h
Form field: TGI (one value per entry).
Report only the number, with the unit µM understood.

CCN(CC)CCCNc1cccc2c(SCc3ccccc3)ccnc12	3.44
O=C1/C(=C\c2cccc(Oc3ccccc3)c2)S(=O)(=O)C(c2ccccc2)N1c1ccc(Cl)cc1 (stereo not given)	28.2
CC(C)(C)c1ccc(-c2nc3ccc([N+](=O)[O-])cc3c(=O)o2)cc1	71.9
CCNC1(c2cccc(C)c2)OC(C)(C)c2cccc3cccc1c23 (stereo not given)	34
CN(C)c1ccc(N=Cc2c([O-])ccc3ccccc23)cc1.[C-]#[O+].[C-]#[O+].[Ir]	33.9
Cc1ccc(NC(=O)NC(=O)c2ccc([N+](=O)[O-])cc2[N+](=O)[O-])cc1Oc1ncc(Cl)cn1	5.9
COc1ccc(Nn2c(SCC(=O)Nc3nc(-c4ccc(Cl)cc4)cs3)nc(C)c2C)cc1	3.55

Next up:
TGI reading for CN(C)CCNc1ccc2c(=O)n(CCN(C)C)c(=O)n3c4ccc([N+](=O)[O-])cc4c(=O)c1c23 : 2.12

###

test system: ACHN renal; assay: NCI tumour cell line growth inhibition, 48 h; in the data active = GI50 below about 0.43 µM; inactive = the rest
Give your call using only these classes: active, inactive

As a guide, the following entries are already answered.
CC(=O)c1c(C(F)(F)F)n([O-])c2ccc(Cl)cc2[n+]1=O	inactive
COC(=O)c1ccc2c(c1)nc(-c1cc3ccccc3[nH]c1=O)n2-c1cc(C(C)(C)C)[nH]n1	inactive

Shift focus to the following entry.
IN: Assay result, entry COc1cc(/C=C/c2cc(/C=C/c3ccc(O)c(OC)c3)n(-c3c(C)cccc3C)c(=O)n2)ccc1O — outcome?
OUT: active
